tested on: Poliovirus 1; test: Concentration required to reduce polio virus type 1 induced cytopathogenicity by 50% in HeLa cell cultures.; type: functional; conditions: Enterovirus C
parameter measured: MIC

q: # input compound: NC(=O)c1cn([C@@H]2O[C@H](CO)[C@@H](O)[C@H]2O)c2ncnc(N)c12 [SANGIVAMYCIN] ; wanted: its MIC
a: 0.07 µg/mL

q: # input compound: Nc1ncnc2c1ncn2C[C@@H](O)CO ; wanted: its MIC
a: > 400 µg/mL

q: # input compound: Nc1ncnc2c1cc(Br)n2C1O[C@H](CO)[C@@H](O)[C@H]1O (some centres undefined) ; wanted: its MIC
a: 150 µg/mL

q: # input compound: Nc1ncnc2c1ccn2[C@@H]1O[C@H](CO)[C@@H](O)[C@H]1O [TUBERCIDIN] ; wanted: its MIC
a: 0.007 µg/mL

q: # input compound: Nc1nccc2c1ncn2[C@@H]1C[C@H](CO)[C@H](O)C1O (some centres undefined) ; wanted: its MIC
a: > 400 µg/mL

q: # input compound: N#C/C=C/c1cn(C2O[C@H](CO)[C@@H](O)[C@H]2O)c2ncnc(N)c12 (some centres undefined) ; wanted: its MIC
a: 4 µg/mL

q: # input compound: Nc1ncnc2c1c(I)cn2[C@@H]1O[C@H](CO)[C@@H](O)[C@H]1O [IODOTUBERCIDIN] ; wanted: its MIC
a: > 0.4 µg/mL

q: # input compound: CC(O)c1cn(C2O[C@H](CO)[C@@H](O)[C@H]2O)c2ncnc(N)c12 (some centres undefined) ; wanted: its MIC
a: 0.2 µg/mL

q: # input compound: Nc1ncnc2c1c(Cl)c(Cl)n2C1O[C@H](CO)[C@@H](O)[C@H]1O (some centres undefined) ; wanted: its MIC
a: > 10 µg/mL

q: # input compound: COC(C)c1cn(C2O[C@H](CO)[C@@H](O)[C@H]2O)c2ncnc(N)c12 (some centres undefined) ; wanted: its MIC
a: 0.7 µg/mL

q: # input compound: Nc1ncnc2c1c(Br)cn2[C@@H]1O[C@H](CO)[C@@H](O)[C@H]1O ; wanted: its MIC
a: > 0.4 µg/mL

q: # input compound: Nc1ncnc2c1c(Br)c(Br)n2C1O[C@H](CO)[C@@H](O)[C@H]1O (some centres undefined) ; wanted: its MIC
a: > 10 µg/mL

q: # input compound: Nc1ncnc2c1c(/C=C/Br)cn2C1O[C@H](CO)[C@@H](O)[C@H]1O (some centres undefined) ; wanted: its MIC
a: > 1 µg/mL

q: # input compound: Nc1ncnc2c1c(Cl)cn2[C@@H]1O[C@H](CO)[C@@H](O)[C@H]1O ; wanted: its MIC
a: 1 µg/mL

q: # input compound: CCCCc1cn(C2O[C@H](CO)[C@@H](O)[C@H]2O)c2ncnc(N)c12 (some centres undefined) ; wanted: its MIC
a: > 40 µg/mL

q: # input compound: C/C=C/Cc1cn(C2O[C@H](CO)[C@@H](O)[C@H]2O)c2ncnc(N)c12 (some centres undefined) ; wanted: its MIC
a: 0.2 µg/mL

q: # input compound: Nc1ncnc2c1c(CCCO)cn2C1O[C@H](CO)[C@@H](O)[C@H]1O (some centres undefined) ; wanted: its MIC
a: 7 µg/mL

q: # input compound: N#Cc1cn([C@@H]2O[C@H](CO)[C@@H](O)[C@H]2O)c2ncnc(N)c12 [TOYOCAMYCIN] ; wanted: its MIC
a: > 0.01 µg/mL

q: # input compound: NC(=O)c1ncn([C@@H]2O[C@H](CO)[C@@H](O)[C@H]2O)n1 [RIBAVIRIN] ; wanted: its MIC
a: 7 µg/mL
